target: human tyrosinase (Homo sapiens); test: Enzyme test: conversion of L-DOPA to L-dopaquinone by a human tyrosinase (MBTH, absorption at 490 nm); format: biochemical; conditions: concentration 10 μg/ml; inhibition of the tyrosinase activity; read-out: Inhibition (% of the control)
Sequence (P14679 19-529): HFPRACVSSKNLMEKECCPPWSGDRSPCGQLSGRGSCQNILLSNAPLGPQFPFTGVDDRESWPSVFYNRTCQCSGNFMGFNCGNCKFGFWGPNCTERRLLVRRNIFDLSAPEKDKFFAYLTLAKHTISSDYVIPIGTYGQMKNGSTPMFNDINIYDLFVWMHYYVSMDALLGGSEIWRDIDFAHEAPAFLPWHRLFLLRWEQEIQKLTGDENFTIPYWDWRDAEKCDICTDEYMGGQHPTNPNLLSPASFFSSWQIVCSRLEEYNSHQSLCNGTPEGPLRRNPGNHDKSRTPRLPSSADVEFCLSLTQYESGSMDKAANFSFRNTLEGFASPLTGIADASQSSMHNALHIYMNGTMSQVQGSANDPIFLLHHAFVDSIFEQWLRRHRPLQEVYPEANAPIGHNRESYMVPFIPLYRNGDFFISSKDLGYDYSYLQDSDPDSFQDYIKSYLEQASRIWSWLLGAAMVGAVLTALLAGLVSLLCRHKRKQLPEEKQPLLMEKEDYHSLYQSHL
Output True for inhibition at 10 µg/mL not less than 70%; output False otherwise.

1) CCCC(=O)Nc1nc(-c2ccc(O)cc2O)cs1
True
2) OCc1ccc(Nc2nc(-c3ccc(O)cc3O)cs2)cc1 [reference compound]
True
3) CCCNc1nc(-c2ccc(O)cc2O)cs1 [reference compound]
True
4) CC(C)(C)Nc1nc(-c2ccc(O)cc2O)cs1 [reference compound]
False
5) CCCCCCNc1nc(-c2ccc(O)cc2O)cs1 [reference compound]
False
